Listing: Inh (% of Ctl) 2.5 μM of selected compounds
# assayedTarget: rat PGT (Rattus norvegicus (Rat))
# testMethodNotes: [3H]PGE2 uptake inhibition in MDCK cells stably transfected with rat PGT (percent inhibition and IC50)
# Type: cell-based
# cond: 2.5 μM compound; inhibition of [3H]PGE2 uptake

Consider the reported Inh (% of Ctl) 2.5 μM for these compounds:
Give its Inh (% of Ctl) 2.5 μM value. Item: `O=C(NCCOCCOCCNc1nc(Nc2ccc(O)cc2)nc(Nc2ccc(C(=O)N[C@H](C(=O)O)c3ccccc3)cc2)n1)c1ccccc1`
21.8 % of Ctl

Give its Inh (% of Ctl) 2.5 μM value. Item: `O=C(NCCOCCOCCNc1nc(Nc2ccc(O)cc2)nc(Nc2ccc3c(c2)C(=O)NC3=O)n1)c1ccccc1`
4.3 % of Ctl

Give its Inh (% of Ctl) 2.5 μM value. Item: `O=C(NCCOCCOCCNc1nc(Nc2ccc(O)cc2)nc(Nc2ccc(C(=O)NCc3ccc(Cl)cc3Cl)cc2)n1)c1ccccc1`
57.6 % of Ctl

---
Give its Inh (% of Ctl) 2.5 μM value. Item: `O=C(NCCOCCOCCNc1nc(Nc2ccc(O)cc2)nc(Nc2ccc(C(=O)NCc3ccc(Cl)cc3)cc2)n1)c1ccccc1`
84.0 % of Ctl

Give its Inh (% of Ctl) 2.5 μM value. Item: `O=C(NCCOCCOCCNc1nc(Nc2ccc(O)cc2)nc(Nc2ccc(C(=O)NCc3ccccc3-c3ccccc3)cc2)n1)c1ccccc1`
81.4 % of Ctl

Give its Inh (% of Ctl) 2.5 μM value. Item: `COc1ccc(CNC(=O)c2ccc(Nc3nc(NCCOCCOCCNC(=O)c4ccccc4)nc(Nc4ccc(O)cc4)n3)cc2)cc1`
71.3 % of Ctl

Give its Inh (% of Ctl) 2.5 μM value. Item: `O=C(NCCOCCOCCNc1nc(Nc2ccc(O)cc2)nc(Nc2ccc(C(=O)NCc3cc(Cl)cc(Cl)c3)cc2)n1)c1ccccc1`
78.3 % of Ctl
